# system.name: T1, middle and C-terminal region of Chz1 (Chz1 64-153) (S. cerevisiae (budding yeast), UniProt P40019 64-153)
# T1 construct: Chz1, budding yeast, residues 64-153; only residues 142-153 are seen in the crystal structure; also called Chz1-MC; Chz1-MC WT; source: E. coli BL21-CodonPLUS(DE3)-RIPL, purified (Ni-NTA, HiTrap Q)
# T1 sequence (looked up): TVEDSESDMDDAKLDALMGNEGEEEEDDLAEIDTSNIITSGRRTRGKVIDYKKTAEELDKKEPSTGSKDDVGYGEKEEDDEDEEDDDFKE
# test: ITC; MicroCal VP-ITC, 25°C, 20 mM MES (pH 6.0), 0.5 M NaCl; chaperone (50 or 150 μM) injected into histones (5 μM scZB or 15 μM scAB and mutants) in the cell; one-site fit
# condition.set: both partners purified
measurement.kind: Kd (µM)
// units = µM; emit number, no label

Solved entries:
single chain H2A-H2B with H2A P50A (other) RKETYSSYIYKVLKQTHPDTGISQKSMSILNSFVNDIFERIATEASKLAAYNKKSTISAREIQTAVRLILPGELAKHAVSEGTRAVTKYSSSTQAQSRSAKAGLTFPVGRVHRLLRRGNYAQRIGSGAAVYLTAVLEYLAAEILELAGNAARDNKKTRIIPRHLQLAIRNDDELNKLLGNVTIAQGGVLPNI : 0.53
single chain H2A-H2B with H2A N91G (other) MRKETYSSYIYKVLKQTHPDTGISQKSMSILNSFVNDIFERIATEASKLAAYNKKSTISAREIQTAVRLILPGELAKHAVSEGTRAVTKYSSSTQAQSRSAKAGLTFPVGRVHRLLRRGNYAQRIGSGAPVYLTAVLEYLAAEILELAGNAARDNKKTRIIPRHLQLAIRGDDELNKLLGNVTIAQGGVLPNI : 0.42
yeast single chain H2A-H2B (other, Limits and order (H2B then H2A) are taken by homology from scZB in 2JSS/6AE8. The paper's H2B numbers are mature (+1 on precursor) and its H2A numbers are precursor. H2A.1 paralogue assumed.) RKETYSSYIYKVLKQTHPDTGISQKSMSILNSFVNDIFERIATEASKLAAYNKKSTISAREIQTAVRLILPGELAKHAVSEGTRAVTKYSSSTQAQSRSAKAGLTFPVGRVHRLLRRGNYAQRIGSGAPVYLTAVLEYLAAEILELAGNAARDNKKTRIIPRHLQLAIRNDDELNKLLGNVTIAQGGVLPNI : 5.02

// next item, Kd requested
Incoming: Quick one: Kd for single chain H2A-H2B with H2A NKLGNV→DSIRA (other) RKETYSSYIYKVLKQTHPDTGISQKSMSILNSFVNDIFERIATEASKLAAYNKKSTISAREIQTAVRLILPGELAKHAVSEGTRAVTKYSSSTQAQSRSAKAGLTFPVGRVHRLLRRGNYAQRIGSGAPVYLTAVLEYLAAEILELAGNAARDNKKTRIIPRHLQLAIRNDDELDSLIRATIAQGGVLPNI ?
Outgoing: 5.08
